In this section we review reported IC50 values for a set of molecules.
tgt: human ENT1 (Homo sapiens, UniProt Q99808)
methodNotes: ENT1 binding assay (competition with Sahenta-DY647 on JAR cells)
Design: JAR cells expressing ENT1 were bought from ATCC; host or cells: JAR cells
conditionInfo: binned IC50
Protocol: Purpose. […] By measuring the fluorescence at the end of the assay we could assess the binding potency of the compounds of the present invention. JAR cells were resuspended in the described buffer. Compounds of the present invention and Sahenta-DY647 were diluted 200× in the described buffer. The total volume of the reaction was 100 μL (50 μL of cells, 25 μL of the compounds of the present invention and 25 μL of Sahenta-DY647) in a 96 well plate, U-bottom (Greiner®, #650-180). […]

Example cases with answers are listed next.
{"columns": ["itemSmiles", "IC50"],
 "data": [
  ["CCOC(=O)C1CCN(c2nc(N(CCOC)CCOC)nc3c(N4CCC(C(=O)OCC)CC4)nc(N(CCOC)CCOC)nc23)CC1", "100 to 500 nM"],
  ["COCCN(CCOC)c1nc(N2CCN(c3ncn(C)n3)CC2)c2nc(N(CCOC)CCOC)nc(NCc3cccc(S(N)(=O)=O)c3)c2n1", "100 to 500 nM"],
  ["COCCN(CCOC)c1nc(N2CCC(OC)CC2)c2nc(N(CCOC)Cc3ccc(OC)c(OC)c3OC)nc(N3CCC(OC)CC3)c2n1", "< 100 nM"]
]}

Let us move to another entry and its IC50.
Qu. Please provide the recorded IC50 for COCCN(CCOC)c1nc(N2CC(F)(F)C2)c2nc(N(CCOC)CCOC)nc(N3CCC(OC)CC3)c2n1 , tested on human ENT1 (Homo sapiens, UniProt Q99808).
Ans. 100 to 500 nM

====

In this section we review reported pIC50 values for a set of compounds.
tgt: human ENT1 (Homo sapiens)
methodNotes: ENT1 binding assay (competition with Sahenta-DY647 on JAR cells)
Set-up: JAR cells expressing ENT1 were bought from ATCC; host or cells: JAR cells
conditionInfo: binned IC50
Experimental: Purpose. […] By measuring the fluorescence at the end of the assay we could assess the binding potency of the compounds of the present invention. JAR cells were resuspended in the described buffer. Compounds of the present invention and Sahenta-DY647 were diluted 200× in the described buffer. The total volume of the reaction was 100 μL (50 μL of cells, 25 μL of the compounds of the present invention and 25 μL of Sahenta-DY647) in a 96 well plate, U-bottom (Greiner®, #650-180). […]
pIC50: −log10 of the molar value.

Example cases with answers are listed next.
{"columns": ["compound", "pIC50"],
 "data": [
  ["COCCN(CCOC)c1nc(N2CCN(C)C(=O)C2)c2nc(N3CCn4cncc4C3)nc(N3CCC(OC)CC3)c2n1 [Compound 298]", "6.00 to 6.30"],
  ["COCCN(CCOC)c1nc(N2CCC(OC)CC2)c2nc(N(CCOC)Cc3cc(OC)c(OC)c(OC)c3)nc(N3CCC(OC)CC3)c2n1 [Compound 184]", "> 7.00"],
  ["COCCN(CCOC)c1nc(N2CCC(OC)CC2)c2nc(N(CCOC)CCOC)nc(NCCCCCC#N)c2n1 [Compound 182]", "6.00 to 6.30"],
  ["COCCN(CCOC)c1nc(N2CCC(OC)CC2)c2nc(N3CCc4[nH]cnc4C3)nc(N3CCN(C)C(=O)C3)c2n1 [Compound 290]", "6.00 to 6.30"]
]}

Qu. State the recorded pIC50 for this entry: COCCN(CCOC)c1nc(N2CCN(c3ccc(C#N)cn3)CC2)c2nc(N(CCOC)CCOC)nc(N3CCC(OC)CC3)c2n1 [Compound 124]
Ans. 6.30 to 7.00

Qu. State the recorded pIC50 for this entry: COCCN(CCOC)c1nc(N2CCC(OC)CC2)c2nc(N(CCOC)CCOC)nc(N3CCCC3)c2n1 [Compound 89]
Ans. 6.30 to 7.00

Qu. State the recorded pIC50 for this entry: COCCN(CCOC)c1nc(N2CCC(OC)CC2)c2nc(N(CCOC)CCOC)nc(N(C)Cc3cccc(OC(F)(F)F)c3)c2n1 [Compound 231]
Ans. 6.30 to 7.00

Qu. State the recorded pIC50 for this entry: COCCN(CCOC)c1nc(N2CCN(c3ncn(C)n3)CC2)c2nc(N(CCOC)CCOC)nc(NCC(C)C)c2n1 [Compound 219]
Ans. 6.30 to 7.00

====

In this section we review reported IC50 values for a set of compounds.
tgt: human ENT1 (Homo sapiens, UniProt Q99808)
methodNotes: ENT1 binding assay (competition with Sahenta-DY647 on JAR cells)
Parameters: JAR cells expressing ENT1 were bought from ATCC; host or cells: JAR cells
conditionInfo: binned IC50

Example cases with answers are listed next.
{"columns": ["compound", "IC50"],
 "data": [
  ["COCCN(CCOC)c1nc(N2CCn3nc(C)nc3C2)c2nc(N(CCO)CCO)nc(N3CCC(OC)CC3)c2n1", "100 to 500 nM"],
  ["COCCN(CCOC)c1nc(N2CCC(OC)CC2)c2nc(N(CCOC)CCOC)nc(N3CCC(OC)CC3)c2n1", "100 to 500 nM"],
  ["COCCN(CCOC)c1nc(N2CCC(OC)CC2)c2nc(N(CCO)CCO)nc(N3CC(=O)N4CCCC4C3)c2n1 (stereo not shown)", "100 to 500 nM"]
]}

Qu. State the recorded IC50 for this entry: COCCN(CCOC)c1nc(N2CCN(c3ncn(C)n3)CC2)c2nc(N(CCOC)CCOC)nc(N(C)Cc3ccc(F)c(C#N)c3)c2n1
Ans. 500 to 1000 nM

Qu. State the recorded IC50 for this entry: COCCN(CCOC)c1nc(N2CCC(OC)CC2)c2nc(N(CCOC)CCOC)nc(N(C)Cc3cccnc3)c2n1
Ans. < 100 nM

Qu. State the recorded IC50 for this entry: COCCN(CCOC)c1nc(N2CCN(c3ncn(C)n3)CC2)c2nc(N(CCOC)CCOC)nc(NCc3cccc(S(C)(=O)=O)c3)c2n1
Ans. 100 to 500 nM

Qu. State the recorded IC50 for this entry: COCCN(CCOC)c1nc(N2CCC(OC)CC2)c2nc(N(CCOC)CCOC)nc(NCc3cncs3)c2n1
Ans. 100 to 500 nM

====

tgt: human ENT1 (Homo sapiens)
methodNotes: ENT1 binding assay (competition with Sahenta-DY647 on JAR cells)
Set-up: JAR cells expressing ENT1 were bought from ATCC; host or cells: JAR cells
conditionInfo: binned IC50
pIC50: −log10 of the molar value.
observable: pIC50

Example cases with answers are listed next.
{"columns": ["compound", "tgt", "pIC50"],
 "data": [
  ["COCCN(CCOC)c1nc(N2CCOC(C)C2)c2nc(N(CCOC)CCOC)nc(N3CCC(OC)CC3)c2n1 (stereo not shown) [Compound 113]", "human ENT1 (Homo sapiens)", "6.30 to 7.00"],
  ["COCCN(CCOC)c1nc(N2CCC(OC)CC2)c2nc(N(CCOC)CCOC)nc(NCCc3ccncc3)c2n1 [Compound 64]", "human ENT1 (Homo sapiens)", "6.30 to 7.00"],
  ["COCCN(CCOC)c1nc(N2CCn3ncnc3C2)c2nc(N(CCOC)CCOC)nc(N3CCN(C)C(=O)C3)c2n1 [Compound 5]", "human ENT1 (Homo sapiens)", "> 7.00"]
]}

Qu. State the recorded pIC50 for this entry: COCCN(CCOC)c1nc(N2CCC(OC)CC2)c2nc(N(CCOC)CCOC)nc(N3CCC(O)CC3)c2n1 [Compound 71]
Ans. 6.30 to 7.00

Qu. State the recorded pIC50 for this entry: COCCN(CCOC)c1nc(N2CCC(OC)CC2)c2nc(N(CCOC)CCOC)nc(OCc3cc(OC)cc(OC)c3)c2n1 [Compound 152]
Ans. > 7.00

Qu. State the recorded pIC50 for this entry: COCCN(CCOC)c1nc(N2CCC(OC)CC2)c2nc(N(CCOC)CCOC)nc(NCc3nccs3)c2n1 [Compound 58]
Ans. 6.00 to 6.30

Qu. State the recorded pIC50 for this entry: COCCN(CCOC)c1nc(N2CCC(OC)CC2)c2nc(N(CCOC)CCOC)nc(OCc3ccc(Cl)c(Cl)c3)c2n1 [Compound 154]
Ans. > 7.00

====

tgt: UniProt Q99808
Sequence (Q99808 1-456): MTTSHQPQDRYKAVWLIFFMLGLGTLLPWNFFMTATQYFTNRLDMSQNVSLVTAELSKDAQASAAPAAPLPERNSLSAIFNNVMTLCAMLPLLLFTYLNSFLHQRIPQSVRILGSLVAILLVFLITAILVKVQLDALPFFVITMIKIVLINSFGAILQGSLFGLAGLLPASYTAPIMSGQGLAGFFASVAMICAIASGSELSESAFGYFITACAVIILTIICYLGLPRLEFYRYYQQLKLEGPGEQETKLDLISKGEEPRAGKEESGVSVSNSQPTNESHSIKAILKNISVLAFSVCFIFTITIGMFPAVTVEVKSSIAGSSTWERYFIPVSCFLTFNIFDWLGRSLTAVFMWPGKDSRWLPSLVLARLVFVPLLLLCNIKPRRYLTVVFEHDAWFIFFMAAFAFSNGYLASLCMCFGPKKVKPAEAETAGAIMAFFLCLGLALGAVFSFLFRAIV
methodNotes: ENT1 binding assay (competition with Sahenta-DY647 on JAR cells)
Set-up: JAR cells expressing ENT1 were bought from ATCC; host or cells: JAR cells
conditionInfo: binned IC50
Description: Purpose. […] By measuring the fluorescence at the end of the assay we could assess the binding potency of the compounds of the present invention. JAR cells were resuspended in the described buffer. Compounds of the present invention and Sahenta-DY647 were diluted 200× in the described buffer. The total volume of the reaction was 100 μL (50 μL of cells, 25 μL of the compounds of the present invention and 25 μL of Sahenta-DY647) in a 96 well plate, U-bottom (Greiner®, #650-180). […]
observable: IC50

Example cases with answers are listed next.
{"columns": ["itemSmiles", "testValue"],
 "data": [
  ["COCCN(CCOC)c1nc(N2CCN(C)C(=O)C2)c2nc(N(CCOC)CCOC)nc(N3CCC(F)(F)CC3)c2n1", "< 100 nM"],
  ["CCCN(C)c1nc(N(CCOC)CCOC)nc2c(N3CC(O)(C(F)(F)F)C3)nc(N(CCOC)CCOC)nc12", "< 100 nM"],
  ["COCCN(CCOC)c1nc(N2CCc3oncc3C2)c2nc(N(CCOC)CCOC)nc(N3CCN(C)C(=O)C3)c2n1", "< 100 nM"],
  ["COCCN(CCO)c1nc(N2CCN(C)C(=O)C2)c2nc(N(CCOC)CCOC)nc(N3CCC(OC)CC3)c2n1", "< 100 nM"],
  ["COCCN(CCOC)c1nc(N2CCN(C)C(=O)C2)c2nc(N(CCOC)CCOC)nc(N3CCCCC3)c2n1", "100 to 500 nM"]
]}

Qu. State the recorded IC50 for this entry: COCCN(CCOC)c1nc(N2CCC(OC)CC2)c2nc(N(CCO)Cc3ccc(OC)c(OC)c3OC)nc(N3CCC(OC)CC3)c2n1
Ans. < 100 nM

Qu. State the recorded IC50 for this entry: COCCN(CCOC)c1nc(N2CCC(F)(F)CC2)c2nc(N(CCOC)CCOC)nc(N3CCC(F)(F)CC3)c2n1
Ans. 100 to 500 nM
